The values you see were collected from ChEMBL document CHEMBL1135413.

Biological target: Corticotropin-releasing factor receptor 1 (Homo sapiens, UniProt P34998)
Sequence (P34998 whole entry): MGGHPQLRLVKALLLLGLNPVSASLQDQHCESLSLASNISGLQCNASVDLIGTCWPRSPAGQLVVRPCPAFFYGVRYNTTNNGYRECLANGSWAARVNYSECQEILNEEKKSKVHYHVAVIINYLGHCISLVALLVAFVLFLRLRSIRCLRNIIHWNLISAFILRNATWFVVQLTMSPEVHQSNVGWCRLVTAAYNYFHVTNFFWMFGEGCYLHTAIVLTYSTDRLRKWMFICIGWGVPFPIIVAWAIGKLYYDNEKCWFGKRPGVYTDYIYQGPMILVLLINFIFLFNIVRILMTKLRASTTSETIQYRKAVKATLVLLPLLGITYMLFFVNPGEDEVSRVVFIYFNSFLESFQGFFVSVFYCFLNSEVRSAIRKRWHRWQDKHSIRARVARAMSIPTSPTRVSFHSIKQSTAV
pKi: −log10 of the molar value.
pKi overview

Consider the following illustrative entries.
CC(=O)/C(=N\Nc1ccccc1Cl)Sc1cccc(Cl)c1    < 5.00
CC(=O)/C(=N\Nc1ccccc1C#N)N(C)c1cccc(Cl)c1    < 5.00
CC(=O)/C(=N\Nc1ccccc1C)Sc1cccc(Cl)c1    < 5.00
CC(=O)/C(=N\c1ccc(Cl)cc1)NNc1ccccc1    < 5.00
CSc1cccc(N/C(=N/Nc2ccccc2C(F)(F)F)C(C)=O)c1    < 5.00

Read the next record carefully.
Requested read-out pKi, target or system Corticotropin-releasing factor receptor 1 (Homo sapiens, UniProt P34998), entry CC(=O)C(=NNc1ccccc1Cl)Nc1cccc(Cl)c1
6.38
